Test target: cat T1R1/T1R3 receptor (Felis catus, UniProt E3UMS2)
Method notes: cell-based
Type: cell-based
Where a name gives a salt, the structure may show the parent alone.
Attribute measured: Max resp. (ΔF/F)

- O=c1[nH]cnc2c1ncn2C1CC(O)C(COP(O)(O)=S)O1 (stereo not drawn): 1.0375 ΔF/F
- O=P(O)(O)OC[C@H]1O[C@@H](n2cnc3c(Cl)ncnc32)C(O)C1O (stereo partly drawn): 1.5325 ΔF/F
- Nc1nc2c(ncn2[C@H]2O[C@@H](COP(=O)(O)O)[C@H](O)[C@@H]2O)c(=O)[nH]1 (stereo in doubt) [Guanosine monophosphate disodium salt, reference compound]: 1.2786 ΔF/F
- Nc1ncnc2c1ncn2[C@H]1CC(OP(=O)(O)O)[C@@H](COP(=O)(O)O)O1 (stereo in doubt) [2′-Deoxyadenosine-3′,5′-O-bisphosphate, 2′-deoxyadenosine-3′, 5′-O-bisphosphate]: 0.8 ΔF/F
- Nc1ncnc2c1ncn2[C@H]1C[C@H](O)[C@@H](COP(=O)(O)O)O1 [2′-Deoxyadenosine 5′-monophosphate]: 1.1503 ΔF/F

Next item in the queue.
Need Max resp. (ΔF/F) of O=P(O)(O)OC[C@H]1O[C@@H](n2cnc3c2ncn2ccnc32)[C@H](O)[C@@H]1O [1,N6-Ethenoadenosine-5′-O-monophosphate] , thanks.
1.4766 ΔF/F

###

Test target: cat T1R1/T1R3 receptor (Felis catus)
Method notes: cell-based
Type: cell-based
Condition label: hek293 cells
From the text: Methods: HEK293 cells that stably express T1R3 and inducibly express T1R1 were exposed to nucleotide derivatives alone or in combination with one or more amino acids and/or one or more nucleotides to activate the umami receptor. Activation of the T1R1/T1R3 receptor was detected by a change in intracellular calcium levels using a calcium sensitive fluorescent dye and/or a luminescent reporter system. Cells that express T1R3 but not T1R1 were used as a control. […]
Where a name gives a salt, the structure may show the parent alone.
Attribute measured: Max. resp. % of IMP

Below are worked cases with known answers.
- Nc1ncnc2c1ccn2[C@H]1O[C@@H](COP(=O)(O)O)[C@H](O)[C@@H]1O (stereo in doubt) [7-Deazaadenosine-5′-O-monophosphate]: 51.4 % of IMP
- Nc1nc2c(ncn2[C@H]2O[C@@H](COP(=O)(O)O)[C@H](O)[C@@H]2O)c(=O)[nH]1 (stereo in doubt) [Guanosine monophosphate disodium salt, reference compound]: 132.1 % of IMP
- CNc1ncnc2c1ncn2[C@H]1C[C@H](OP(=O)(O)O)[C@@H](COP(=O)(O)O)O1 [MRS 2179 ammonium salt hydrate, diammonium salt]: 146.1 % of IMP
- O=P(O)(O)OC[C@H]1O[C@@H](n2cnc3c2ncn2ccnc32)C[C@@H]1O: 70.0 % of IMP
- O=c1[nH]c(=O)c2ncn([C@@H]3O[C@H](COP(=O)(O)O)[C@@H](O)[C@H]3O)c2[nH]1 [Disodium Salt]: 167.6 % of IMP

Quick one: Max. resp. % of IMP of Nc1ncnc2c1ncn2[C@@H]1O[C@H](COP(O)(O)=S)[C@@H](O)[C@H]1O [Adenosine-5′-O-monophosphorothioate] ?
128.4 % of IMP

# query: Max. resp. % of IMP of entry Nc1nc2c(ncn2[C@@H]2O[C@H](COP(=O)(O)OP(=O)(O)O)[C@@H](O)[C@H]2O)c(=O)[nH]1 [Guanosine 5′-diphosphate sodium salt, Guanosine 5′-diphosphate]
141.2 % of IMP
